FYI, the data here is from patent US20250368753A1.

# system-under-test: proprotein convertase subtilisin/kexin type 9 (PCSK9) (human) (UniProt Q8NBP7)
# assay-protocol: PCSK9 biochemical disruption assay (BPS Biosciences Cat. #72010); antibody disrupts PCSK9 binding to LDL-R
Give pIC50 for every item shown.
Answers are plain numbers, as −log10 of the molar value.

Worked cases, pIC50 given:
{"columns": ["binder", "pIC50"],
 "data": [
  ["AB-7 (antibody, V domains shown) VH: QVQLVQSGAEVKKPGASVKVSCKASGYTFTSYYMHWVRQAPGQGLEWMGEIFPSGGRTNYNEKFKSRVTMTRDTSTSTVYMELSSLRSEDTAVYYCARERPFYASDLWGQGTTVTVSS VL: DIQMTQSPSSLSASVGDRVTITCRASQGISSALAWYQQKPGKAPKLLIYSASNLYTGVPSRFSGSGSGTDFTFTISSLQPEDIATYYCQQRYSLWRTFGQGTKLEIK", 7.74],
  ["AB-8 (antibody, V domains shown) VH: QVQLVQSGAEVKKPGASVKVSCKASGYTFTSYYMHWVRQAPGQGLEWMGEILPSGGRTNYNEKFKSRVTMTRDTSTSTVYMELSSLRSEDTAVYYCARERPLYAMDIWGQGTTVTVSS VL: DIQMTQSPSSLSASVGDRVTITCRASQGISSALAWYQQKPGKAPKLLIYSASYRYTGVPSRFSGSGSGTDFTFTISSLQPEDIATYYCQQRYSTWRTFGQGTKLEIK", 7.74],
  ["AB-1 (antibody, V domains shown) VH: QVQLVQSGAEVKKPGASVKVSCKASGYTFTSYYMHWVRQAPGQGLEWMGEILPGGGTTNYNQKFKSRVTMTRDTSTSTVYMELSSLRSEDTAVYYCARESPLYASDIWGQGTTVTVSS VL: DIQMTQSPSSLSASVGDRVTITCRASQGISTALAWYQQKPGKAPKLLIYSASYLYTGVPSRFSGSGSGTDFTFTISSLQPEDIATYYCQQRYSLWRTFGQGTKLEIK", 7.74],
  ["AB-2 (antibody, V domains shown) VH: QVQLVQSGAEVKKPGASVKVSCKASGYTFTSYYMHWVRQAPGQGLEWMGWIEPFGGRTNYNEKFKSRVTMTRDTSTSTVYMELSSLRSEDTAVYYCARERPLYAMDVWGQGTTVTVSS VL: DIQMTQSPSSLSASVGDRVTITCRASQGISGALAWYQQKPGKAPKLLIYSASYRYTGVPSRFSGSGSGTDFTFTISSLQPEDIATYYCQQRYSLSRTFGQGTKLEIK", 7.76],
  ["AB-11 (antibody, V domains shown) VH: QVQLVQSGAEVKKPGASVKVSCKASGYSFTSYYMHWVRQAPGQGLEWMGEIDLSGGSTNYNQKFQSRVTMTRDTSTSTVYMELSSLRSEDTAVYYCARERPLYAFDVWGQGTTVTVSS VL: DIQMTQSPSSLSASVGDRVTITCRASQGISSALAWYQQKPGKAPKLLIYSASYRYTGVPSRFSGSGSGTDFTFTISSLQPEDIATYYCQQRYSLWRTFGQGTKLEIK", 7.68],
  ["AB-5 (antibody, V domains shown) VH: QVQLVQSGAEVKKPGASVKVSCKASGYTFTSYWMHWVRQAPGQGLEWMGEISPSGGSTNYNEKFKSRVTMTRDTSTSTVYMELSSLRSEDTAVYYCARERPLYAMDVWGQGTTVTVSS VL: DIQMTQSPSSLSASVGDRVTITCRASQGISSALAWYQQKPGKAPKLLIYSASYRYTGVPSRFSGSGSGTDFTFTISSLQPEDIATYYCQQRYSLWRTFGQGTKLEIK", 7.72]
]}

Next up:
Any idea what pIC50 was measured for AB-3 (antibody, V domains shown) VH: QVQLVQSGAEVKKPGASVKVSCKASGYTFTSYWMHWVRQAPGQGLEWMGEIDPSGGSTNYNQKFQSRVTMTRDTSTSTVYMELSSLRSEDTAVYYCARERPLYASDVWGQGTTVTVSS VL: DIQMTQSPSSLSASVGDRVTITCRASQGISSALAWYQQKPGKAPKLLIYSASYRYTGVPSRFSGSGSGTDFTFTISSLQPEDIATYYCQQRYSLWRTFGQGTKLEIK ?
7.79
